# System: SNB-19 CNS
# method.description: NCI tumour cell line growth inhibition, 48 h
quantity.measured: TGI

Consider the following items and state reported TGI for each.
1. CNC(=O)c1ccc(-c2cnc3ncc(Cc4ccc5ncccc5c4)n3n2)cc1F
2. CCOC(=O)c1ccc(C(=O)/C(C(=O)OC(C)(C)C)=C2\CCCN2C)n1C
3. CC(=O)n1c(-c2ccc(Cl)cc2)nc2c(c1=O)C(c1ccc(Cl)cc1)c1sc3c(Cl)cccc3c1O2 (centres undefined)
4. O=C1N[C@@H](O)[C@@H]2ON=C(c3ccccc3)[C@H]12
5. CC1CCCC(C(=O)/C(=C/c2cccc(Cl)c2)C(=O)C(=O)O)C1 (centres undefined)
6. CC(=O)[CH-]C(C)=O.CC(=O)[CH-]C(C)=O.N=CC=N.[Sn+2]

> 100 µM
> 100 µM
1.98 µM
> 100 µM
> 100 µM
27.8 µM

Consider the following items and state reported TGI for each.
1. Cc1cc2c(cc1Cl)SC(NNc1cnc3ccccc3n1)=NS2(=O)=O
2. COC(=O)C(Cc1ccccc1)N/C=C\C(=O)c1ccc(Cl)cc1 (centres undefined)
3. COc1cc2c3c(n(C)c(=O)c2cc1OC)-c1cc2c(cc1/C3=C/CCCCBr)OCO2
4. COc1ccc2c(-c3cc4ccccc4o3)cc(=O)oc2c1

1. > 100 µM
2. > 100 µM
3. > 100 µM
4. > 100 µM

Consider the following items and state reported TGI for each.
1. COC(=O)C(=O)C(C(=O)C(=O)Nc1cc([N+](=O)[O-])ccc1C#N)c1nc2ccccc2[nH]c1=O (centres undefined)
2. CC(=O)c1c(C)n([O-])c2cc(C)c(C)cc2[n+]1=O

1: > 100 µM; 2: > 100 µM

====

# Test system: HL-60(TB) leukemia
# method.description: NCI tumour cell line growth inhibition, 48 h
quantity.measured: TGI

CN(C)c1nc(-c2cccs2)n2nc(-c3ccc(Cl)cc3)cc2n1 | > 100 µM
CCOC(=O)C1=C(C)NC(=O)N([N+](=O)[O-])C1c1ccccc1C(F)(F)F (configuration not stated) | > 100 µM
COc1ccc(C2=NC(C)(C)CO2)cc1 | > 100 µM
CC/C=C\C/C=C\C/C=C\CCCCCCCC(=O)OC(COC(=O)CCCCCCCCCCCCCCCCC)COC1OC(CO)C(O)C(O)C1O (configuration not stated) | > 25 µM
COn1cc(CO)c2ccccc21 | > 100 µM
NC(N)=N/N=C/c1c(-c2ccccn2)nc2sc(Cl)cn12 | 25.8 µM
CCCCCC(C(O)C#N)C(O)(C(F)(F)F)C(F)(F)F (configuration not stated) | > 10 µM
CCOC1NC(=O)c2ccccc21 (configuration not stated) | > 100 µM

Consider the following items and state reported TGI for each.
1. CCNC(=S)N/N=C/c1ccccn1
2. CCN(Cc1c(F)cccc1F)c1ccc(CO)c(Cl)c1
3. O=c1cc(-c2ccccc2F)[nH]c2cc3c(cc12)OCO3
4. COc1ccc(C2C(C#N)=C(N)OC3=C2CCCc2ccc(F)cc23)cc1OC (configuration not stated)

23.2 µM
39.4 µM
1.09 µM
> 100 µM

====

# Tested on: T-47D breast
# method.description: NCI tumour cell line growth inhibition, 48 h
Would you kindly list TGI for each of these compounds?

Consider the following items and state reported TGI for each.
1. COC(=O)C1=C(C(=O)OC)C2(C)CCC(=O)C1O2 (configuration not stated)
2. CC/C=C\C/C=C\C/C=C\CCCCCCCC(=O)OC(COC(=O)CCCCCCCCCCCCCCCCC)COC1OC(CO)C(O)C(O)C1O (configuration not stated)
3. Clc1cccc(C2ON=C(c3ccccc3)N2C23CC4CC(CC(C4)C2)C3)c1Cl (configuration not stated)
4. COn1cc(CO)c2ccccc21
5. Cc1ccsc1C(=S)Nc1ccc(Cl)c(C(=O)OC(C(C)C)C(C)C)c1

1: > 10 µM; 2: > 25 µM; 3: > 10 µM; 4: > 100 µM; 5: > 100 µM

====

# Test system: UACC-257 melanoma
# method.description: NCI tumour cell line growth inhibition, 48 h
quantity.measured: TGI

Below: 3 compounds and their reported TGI.
OCC1OC(O[C@H]2CN3[C@H](O)[C@@H](O)[C@H](O)[C@H]3C2O)C(O)C(O)C1O (stereo not given in full) | > 100 µM
CCOC(=O)c1[nH]c2nc(SC)nc(NC)c2c1N | > 100 µM
Cc1noc(C)c1-c1ccc2[nH]c(=O)n3c2c1OC[C@@H]3c1ccccn1 | > 100 µM

Consider the following items and state reported TGI for each.
1. COP(=O)(CC(=O)C1OC(OCc2ccccc2)C(OCc2ccccc2)C(OCc2ccccc2)C1OCc1ccccc1)OC (stereo not given)
2. COc1ccc(C(=O)C(C(=O)CCC(=O)Nc2cccc(C(F)(F)F)c2)c2ccccc2)cc1 (stereo not given)

1. 43.9 µM
2. > 100 µM

====

Would you kindly list GI50 for each of these compounds?
# Tested on: SR leukemia
# method.description: NCI tumour cell line growth inhibition, 48 h

CCCCCC(=O)Oc1ccc(/C(=C(\C)c2ccc(OC)cc2)c2ccc(OCCN3CCCCC3)cc2)cc1 | 2710 nM

Consider the following items and state reported GI50 for each.
1. CN(C)c1nc(-c2cccs2)n2nc(-c3ccc(Cl)cc3)cc2n1
2. COCC(=O)OC1CCn2c1nc1c2C(=O)C(C)=C(NC(C)=O)C1=O (stereo not drawn)

["> 100000 nM", "2520 nM"]

====

# System: SF-295 CNS
# method.description: NCI tumour cell line growth inhibition, 48 h
quantity.measured: TGI (µM)
Give bare numbers, in µM.

COC(=O)C(Cc1ccccc1)N/C=C\C(=O)c1ccc(Cl)cc1 (stereo not given) | 35.8

Okay, next one:
Documented TGI of COc1cc(/C=C2\CC3C4CC=C5CC(N6CCCC6)CC[C@]5(C)C4CC[C@]3(C)C2OC(C)=O)ccc1OCCN1CCCC1 (stereo not given in full) : 26.5

====

# System: DMS 114 small cell lung
# method.description: NCI tumour cell line growth inhibition, 48 h
Would you kindly list log10(TGI) for each of these molecules?
Recall that a logarithmic scale is used here: each number is log10 of TGI in µM.

CC1CCCC(C(=O)/C(=C/c2cccc(Cl)c2)C(=O)C(=O)O)C1 (stereo not given) | 1.66

Consider the following items and state reported log10(TGI) for each.
1. CN(C)C(=S)/N=c1\ss/c(=N\S(=O)(=O)c2ccccc2)n1-c1ccccc1
2. CCOC(=O)C(C)NC(=O)N(C)C12CC3CC(CC(C3)C1)C2 (stereo not given)
3. c1ccc2c(c1)N=C(c1cccc3ccccc13)CC(c1cccc3ccccc13)S2 (stereo not given)

1: 1.70; 2: 2.49; 3: 1.00

Documented log10(TGI) of O=C(c1ccccc1)[C@H]1Nc2cnccc2C2c3ccccc3CC21 (stereo not given in full) : 1.49

====

# System: IGROV1 ovarian
# method.description: NCI tumour cell line growth inhibition, 48 h; in the data active = GI50 below about 0.43 µM; inactive = the rest
# valid calls are active, inactive; nothing else

Consider the following illustrative entries.
CCn1c(-c2nonc2N)nc2ccc(F)cc21 | inactive
CNC(=O)c1ccc(-c2cnc3ncc(Cc4ccc5ncccc5c4)n3n2)cc1F | inactive

Recorded test outcome, item `CC1=C(C)C(=O)O[C@@H]([C@](C)(O)[C@]2(O)CC[C@@]3(O)[C@@H]4C[C@H]5O[C@]56CC=CC(=O)[C@]6(C)[C@H]4CC[C@]23C)C1`
active

Recorded test outcome, item `COc1cc2c3c(n(CCCN4CCC(N)CC4)c(=O)c2cc1OC)-c1cc2c(cc1C3=O)OCO2`
inactive

Recorded test outcome, item `CC(=O)[CH-]C(C)=O.CC(=O)[CH-]C(C)=O.N=CC=N.[Sn+2]`
inactive

====

# System: NCI/ADR-RES ovarian
# method.description: NCI tumour cell line growth inhibition, 48 h
Would you kindly list TGI for each of these compounds?

Cc1ccc(-n2cc(-c3ccc(Cl)cc3)c3c2N=CN2NC(c4ccco4)=NC32)cc1 (stereo unspecified) | 86.6 µM
COC1OC2COC(C)(C)OC2C2OC(C)(C)OC12 (stereo unspecified) | > 100 µM
CNC(=O)c1cn(C[C@H](F)CCc2ccc(NC(=O)Cc3cc(OC4CC(F)(F)C4)cc(C)n3)nn2)nn1 | > 100 µM

Consider the following items and state reported TGI for each.
1. Cc1c(-c2nc(N)nc(C3CC3)c2C)nc(N)nc1C1CC1
2. COc1ccc(/C=N/Nc2nc3ccccc3c(=O)n2-c2ccccc2)c(OCc2ccccc2)c1
3. CCOC(=O)Cc1nn2c(=O)cc(C)nc2s1
4. O=C1c2c(c3c4ccc(Br)cc4oc3c3[nH]c4ccccc4c23)C(=O)N1O
5. Nc1ccc(SC23CC4CC(CC(C4)C2)C3)cc1

1: > 100 µM; 2: > 100 µM; 3: > 100 µM; 4: > 100 µM; 5: > 100 µM

Consider the following items and state reported TGI for each.
1. CCN(Cc1c(F)cccc1F)c1ccc(CO)c(Cl)c1
2. CN(C)c1nc(=NCc2ccccn2)ss1
3. CCN(CC(=O)O)CC(=O)O
4. CC1OC(n2cc(F)c(=O)[nH]c2=O)C(O[Si](C)(C)C(C)(C)C)C1O[Si](C)(C)C(C)(C)C (stereo unspecified)
5. O=P(O)(O)C(O)(Cn1ccnc1)P(=O)(O)O
6. Oc1c(Br)cc(CN(Cc2cc(Br)c(O)c(Br)c2)C2CCCCC2)cc1Br
7. CN(C)CCNC(=O)Nc1c(C#N)[n+]([O-])c2cc(Cl)c(Cl)cc2[n+]1[O-]
8. COC(=O)C(CCSC)NC(=O)CSc1nnc(COc2ccc(Cl)cc2)n1-c1ccccc1 (stereo unspecified)

1. 43.2 µM
2. > 10 µM
3. > 100 µM
4. 27.7 µM
5. > 100 µM
6. > 100 µM
7. > 100 µM
8. 39.2 µM

Consider the following items and state reported TGI for each.
1. O=C1NN=C(c2c[nH]c3ccccc23)CC1NCc1ccccc1 (stereo unspecified)
2. O=C(/C=C1\C[C@H]2C=Nc3ccccc3C(=O)N2C1)NCCCCCNC(=O)/C=C1\C[C@H]2C=Nc3ccccc3C(=O)N2C1
3. Clc1ccc(OCc2nnc3n2N=C(c2ccc(Cl)cc2Cl)CS3)c(Cl)c1

> 100 µM
55.9 µM
91.6 µM

Consider the following items and state reported TGI for each.
1. O=c1c(Cc2ccccc2)c(-c2ccccc2)[nH]n1C1=NCCN1
2. Cc1ccc(C(=O)CC(Sc2cccc(Cl)c2Cl)c2ccc(Cl)cc2)cc1C (stereo unspecified)

["> 100 µM", "48.9 µM"]

Reference for the values: PubChem BioAssay (NCI)
